Assay: chemical genetic growth profiling, strain panel (AID 1159580);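 further: tested at 20 µM; growth read once vehicle control cultures reached saturation at 30 °C; 1 = growth at the plate median or of vehicle wells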
Settings: S. cerevisiae deletion strains, growth OD, locus YNR052C, strain pop2, stronger effect = lower value
In all, about 5,500 compounds went through this assay and about 2,000 (36%) were called active. Not shown: some 18% with an inconclusive outcome. The list shows a part of the results.
normalized growth vs 1: less than gives yes; not less than gives no.

// below: answered compounds
Confirm or reject: normalized growth of COS(C)(=O)=O lies strictly below 1
no

Queued: CC(=O)O[C@H]1CC[C@@]2(C)C(=CCC3C2CC[C@]2(C)C(=O)CCC32)C1 (some centres not stated)
yes

***
Please check: normalized growth for COc1ccccc1N1CCNCC1 , strictly under 1 or not?
no

Now consider CC[C@@H](C(=O)O)[C@@H]1O[C@@H]([C@@H](C)[C@H](O)[C@H](C)C(=O)[C@H](CC)[C@H]2O[C@]3(C=C[C@@H](O)[C@]4(CC[C@@](C)(C5CC[C@](O)(CC)[C@H](C)O5)O4)O3)[C@H](C)C[C@@H]2C)[C@@H](C)C[C@H]1C (some centres not stated) and answer again.
yes

Item: COc1c(C2COc3cc4c(cc3C2=O)CC(O)C(C)(C)O4)ccc2c1CCC(C)(C)O2 (configuration not stated)
no

Also check O=C1OCCN1/N=C\c1ccc([N+](=O)[O-])o1
yes

Moving on to CCCCC(CC)CN=C(N)NC(N)=NCCCCCCN=C(N)NC(N)=NCC(CC)CCCC (configuration not stated)
yes

====

Please provide measured normalized growth for the entries that follow.
Assay: chemical genetic growth profiling, strain panel (AID 1159580);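 further: tested at 20 µM; growth read once vehicle control cultures reached saturation at 30 °C; 1 = growth at the plate median or of vehicle wells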
Conditions: S. cerevisiae deletion strains, growth OD, locus YOR184W, strain ser1, stronger effect = lower value
The whole screen tested about 5,500 compounds, of which about 2,000 (36%) were called active. Roughly 18% stayed inconclusive and do not appear here. The list shows a part of the results.
One number for each entry.

normalized growth for c1ccc2[nH]c(-c3cscn3)nc2c1 ?
0.932

Then COc1cc2c3cc1Oc1cc(ccc1O)OC1c4c(cc(OC)c(O)c4Oc4ccc(cc4)CC3N(C)CC2)CCN1C (configuration not stated) ?
0.93

Can you check CC[C@@]1(C2O[C@@H](C3O[C@@](O)(CC)[C@H](C)C[C@@H]3C)C[C@@H]2C)CC[C@H]([C@]2(C)CCC3(C[C@H](O)[C@@H](C)[C@@H]([C@H](C)[C@@H](OC)[C@H](C)C(=O)O)O3)O2)O1 (some centres not stated) next?
0.977

Quick one: CC1=C(/C=C/C(C)=C/C=C/C(C)=C\C(=O)O)C(C)(C)CCC1
0.95

Param item: O=C(O)CCCCCCCCCCCCC1C=CCC1 (configuration not stated)
0.726

Would you mind doing COc1ccc(/C=C/c2cc(O)cc(O)c2)cc1 as well?
0.623

And the next one, O=C(/C=C/c1ccc(O)c(O)c1)O[C@@H]1C[C@](O)(C(=O)O)C[C@@H](O)[C@H]1O ?
1

Cool, now Nc1nc2ncc(CNc3ccc(C(=O)N[C@@H](CCC(=O)O)C(=O)O)cc3)nc2c(=O)[nH]1
0.963

Queued: CCn1cc(C(=O)O)c(=O)c2ccc(C)nc21
0.882

Likewise for O=C(O)CCC(=O)c1ccc(-c2ccccc2)cc1 ?
0.905

Hey, can you go through the list below and give me normalized growth for every item?
1. CC(=O)OC/C=C(C)/C=C/C=C(C)/C=C/C1=C(C)CCCC1(C)C
2. O=c1cccc2n1C[C@H]1CNCC2C1

[0.998, 0.996]
